Consider the following molecules and their measured pIC50 readings.
# Tested on: 857933-349-R-J2-PDC complex spheroid viability
# Test summary: Anticancer human tumor 857933-349-R-J2-PDC patient-derived colon adenocarcinoma cell line growth inhibition [POLQ]
# Condition details: curve of first compound; second compound 0.316 µM
pIC50: −log10 of the molar value.

Molecule: CC[C@@]1(O)C(=O)OCc2c1cc1n(c2=O)Cc2cc3c(CN(C)C)c(O)ccc3nc2-1 + Nc1ccc(C#CCN(C(=O)Cc2ncc(C(F)(F)F)cc2C(F)(F)F)c2ccc(F)cc2)nn1
pIC50: 7.11

Molecule: Nc1ccn(C2OC(CO)C(O)C2(F)F)c(=O)n1 (stereo not drawn) + Cc1cccc(N(C)C(=O)C2C(O)CCN2c2nc(C)cc(C(F)(F)F)c2C#N)c1
pIC50: 6.93

Molecule: COc1cccc2c1C(=O)c1c(O)c3c(c(O)c1C2=O)CC(O)(C(=O)CO)CC3OC1CC(N)C(O)C(C)O1 (stereo not drawn) + Cc1cccc(N(C)C(=O)C2C(O)CCN2c2nc(C)cc(C(F)(F)F)c2C#N)c1
pIC50: 6.52

====

# Tested on: 857933-349-R-J2-PDC complex spheroid viability
# Test summary: Anticancer human tumor 857933-349-R-J2-PDC cell line growth inhibition [POLQ];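 further: spheroids exposed to compounds for seven days before readout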
# Condition details: second compound 1 µM; first compound 0.0316 µM; stronger effect = lower value

Compound: C#Cc1c(F)ccc2cc(O)cc(-c3ncc4c(N5CC6CCC(C5)N6)nc(OCC56CCCN5CC(F)C6)nc4c3F)c12 (stereo not given) + Cc1cccc(N(C)C(=O)C2C(O)CCN2c2nc(C)cc(C(F)(F)F)c2C#N)c1
Output unit: %
viability, T/C: 87
//
Compound: COc1ccc([C@@H](O)c2cc(-c3ncnc4cc(N5CCOCC5)ccc34)c(F)cc2Cl)nn1 + COC1C(OC(N)=O)C(O)C(Oc2ccc3c(O)c(NC(=O)c4ccc(O)c(CC=C(C)C)c4)c(=O)oc3c2C)OC1(C)C
Output unit: %
viability, T/C: 100
//
Compound: Nc1ccn(C2OC(CO)C(O)C2(F)F)c(=O)n1 (stereo not given) + Nc1ccc(C#CCN(C(=O)Cc2ncc(C(F)(F)F)cc2C(F)(F)F)c2ccc(F)cc2)nn1
Output unit: %
viability, T/C: 81
//
Compound: O=c1[nH]cc(F)c(=O)[nH]1 + Nc1ccc(C#CCN(C(=O)Cc2ncc(C(F)(F)F)cc2C(F)(F)F)c2ccc(F)cc2)nn1
Output unit: %
viability, T/C: 106
//
Compound: COc1cccc(OCCCN)c1-c1cc(Nc2cnc(C#N)cn2)n[nH]1 + Nc1ccc(C#CCN(C(=O)Cc2ncc(C(F)(F)F)cc2C(F)(F)F)c2ccc(F)cc2)nn1
Output unit: %
viability, T/C: 80.5

====

# Test system: 857933-349-R-J2-PDC complex spheroid viability
# Test summary: Anticancer human tumor 857933-349-R-J2-PDC cell line growth inhibition [POLQ];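 further: spheroids exposed to compounds for seven days before readout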
# Condition details: second compound 1 µM; first compound 0.0316 µM; stronger effect = lower value
# Protocol: Multicellular complex tumor spheroid response to Polymerase (POL) inhibitors (novobiocin, ART-558, RP6685) in combination with a variety of drugs and investigational agents in selected tumor cell lines The POL inhibitors (novobiocin, ART-558, and RP6685) were evaluated both individually and in combination with standard of care and investigational anticancer small molecules within a complex spheroid model of solid tumors. . […]
Could you please mark Yes for values of viability, T/C below 90% and No for values at or above it?

Compound: COc1cc(C2c3cc4c(cc3C(OC3OC5COC(C)OC5C(O)C3O)C3COC(=O)C23)OCO4)cc(OC)c1O (stereo not given) + Nc1ccc(C#CCN(C(=O)Cc2ncc(C(F)(F)F)cc2C(F)(F)F)c2ccc(F)cc2)nn1
Class name: No
//
Compound: O=C(Nc1ccc(O)c(NS(=O)(=O)c2ccc(F)cc2)c1)c1ccc(-c2ccccc2)cc1 + Cc1cccc(N(C)C(=O)C2C(O)CCN2c2nc(C)cc(C(F)(F)F)c2C#N)c1
Class name: No
//
Compound: COc1cc2cc(C(=O)CCC(=O)O)sc2cc1OC + COC1C(OC(N)=O)C(O)C(Oc2ccc3c(O)c(NC(=O)c4ccc(O)c(CC=C(C)C)c4)c(=O)oc3c2C)OC1(C)C
Class name: No
//
Compound: O=C(Nc1ccc(O)c(NS(=O)(=O)c2ccc(F)cc2)c1)c1ccc(-c2ccccc2)cc1 + COC1C(OC(N)=O)C(O)C(Oc2ccc3c(O)c(NC(=O)c4ccc(O)c(CC=C(C)C)c4)c(=O)oc3c2C)OC1(C)C
Class name: Yes
//
Compound: CNCc1ccc(-c2[nH]c3cc(F)cc4c3c2CCNC4=O)cc1 + COC1C(OC(N)=O)C(O)C(Oc2ccc3c(O)c(NC(=O)c4ccc(O)c(CC=C(C)C)c4)c(=O)oc3c2C)OC1(C)C
Class name: No
//
Compound: C=CC(=O)N1CCN(c2nc(=O)n(-c3c(C)ccnc3C(C)C)c3nc(-c4c(O)cccc4F)c(F)cc23)C(C)C1 (stereo not given) + Cc1cccc(N(C)C(=O)C2C(O)CCN2c2nc(C)cc(C(F)(F)F)c2C#N)c1
Class name: No
//
Compound: CC(C)n1c(=O)n(C)c2cnc3cc(F)c(-c4ccc(OCCCN5CCCCC5)nc4)cc3c21 + COC1C(OC(N)=O)C(O)C(Oc2ccc3c(O)c(NC(=O)c4ccc(O)c(CC=C(C)C)c4)c(=O)oc3c2C)OC1(C)C
Class name: Yes
//
Compound: CC(C)n1c(=O)n(C)c2cnc3cc(F)c(-c4ccc(OCCCN5CCCCC5)nc4)cc3c21 + Cc1cccc(N(C)C(=O)C2C(O)CCN2c2nc(C)cc(C(F)(F)F)c2C#N)c1
Class name: Yes
//
Compound: Cn1ncnc1[C@H]1c2n[nH]c(=O)c3cc(F)cc(c23)N[C@@H]1c1ccc(F)cc1 + COC1C(OC(N)=O)C(O)C(Oc2ccc3c(O)c(NC(=O)c4ccc(O)c(CC=C(C)C)c4)c(=O)oc3c2C)OC1(C)C
Class name: No

====

# viability, T/C annotations
# Tested on: 857933-349-R-J2-PDC complex spheroid viability
# Test summary: Anticancer human tumor 857933-349-R-J2-PDC cell line growth inhibition [POLQ];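 further: spheroids exposed to compounds for seven days before readout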
# Condition details: second compound 10 µM; first compound 0.316 µM; stronger effect = lower value

Compound: COc1cc2cc(C(=O)CCC(=O)O)sc2cc1OC + Cc1cccc(N(C)C(=O)C2C(O)CCN2c2nc(C)cc(C(F)(F)F)c2C#N)c1
Output unit: %
viability, T/C: 81.6
//
Compound: CC1COCCN1c1cc(C2(S(C)(=N)=O)CC2)nc(-c2ccnc3[nH]ccc23)n1 (stereo unspecified) + Cc1cccc(N(C)C(=O)C2C(O)CCN2c2nc(C)cc(C(F)(F)F)c2C#N)c1
Output unit: %
viability, T/C: 88.6
//
Compound: O=c1[nH]cc(F)c(=O)[nH]1 + COC1C(OC(N)=O)C(O)C(Oc2ccc3c(O)c(NC(=O)c4ccc(O)c(CC=C(C)C)c4)c(=O)oc3c2C)OC1(C)C
Output unit: %
viability, T/C: 76.3
//
Compound: CCc1cc2c(N3CCc4c(cc(Cn5ccnc5)cc4-c4cn(C)nc4C(F)(F)F)C3=O)cc(C)nc2c(OC)n1 + Nc1ccc(C#CCN(C(=O)Cc2ncc(C(F)(F)F)cc2C(F)(F)F)c2ccc(F)cc2)nn1
Output unit: %
viability, T/C: 75
//
Compound: O=C(Nc1ccc(O)c(NS(=O)(=O)c2ccc(F)cc2)c1)c1ccc(-c2ccccc2)cc1 + Cc1cccc(N(C)C(=O)C2C(O)CCN2c2nc(C)cc(C(F)(F)F)c2C#N)c1
Output unit: %
viability, T/C: 91
//
Compound: C=CC(=O)N1CCN(c2nc(=O)n(-c3c(C)ccnc3C(C)C)c3nc(-c4c(O)cccc4F)c(F)cc23)C(C)C1 (stereo unspecified) + Cc1cccc(N(C)C(=O)C2C(O)CCN2c2nc(C)cc(C(F)(F)F)c2C#N)c1
Output unit: %
viability, T/C: 101
//
Compound: COc1cccc2c1C(=O)c1c(O)c3c(c(O)c1C2=O)CC(O)(C(=O)CO)CC3OC1CC(N)C(O)C(C)O1 (stereo unspecified) + Cc1cccc(N(C)C(=O)C2C(O)CCN2c2nc(C)cc(C(F)(F)F)c2C#N)c1
Output unit: %
viability, T/C: 35.7
//
Compound: COc1cccc2c1C(=O)c1c(O)c3c(c(O)c1C2=O)CC(O)(C(=O)CO)CC3OC1CC(N)C(O)C(C)O1 (stereo unspecified) + COC1C(OC(N)=O)C(O)C(Oc2ccc3c(O)c(NC(=O)c4ccc(O)c(CC=C(C)C)c4)c(=O)oc3c2C)OC1(C)C
Output unit: %
viability, T/C: 43.5
//
Compound: O=C(c1cc(Cc2n[nH]c(=O)c3ccccc23)ccc1F)N1CCN(C(=O)C2CC2)CC1 + Cc1cccc(N(C)C(=O)C2C(O)CCN2c2nc(C)cc(C(F)(F)F)c2C#N)c1
Output unit: %
viability, T/C: 82.6
//
Compound: Nc1ccn(C2OC(CO)C(O)C2(F)F)c(=O)n1 (stereo unspecified) + COC1C(OC(N)=O)C(O)C(Oc2ccc3c(O)c(NC(=O)c4ccc(O)c(CC=C(C)C)c4)c(=O)oc3c2C)OC1(C)C
Output unit: %
viability, T/C: 28.2
//
Compound: COc1ccc([C@@H](O)c2cc(-c3ncnc4cc(N5CCOCC5)ccc34)c(F)cc2Cl)nn1 + Nc1ccc(C#CCN(C(=O)Cc2ncc(C(F)(F)F)cc2C(F)(F)F)c2ccc(F)cc2)nn1
Output unit: %
viability, T/C: 95.3

Source of measurements: PubChem BioAssay AID1963836
